Entries and their IC50 values follow.
# Tested Target: purified recombinantly expressed human SSAO (Homo sapiens)
# Protocol Summary: SSAO enzyme inhibition assay (benzylamine substrate; hydrogen peroxide/HRP-coupled or 14C aldehyde detection)
# Assay Context: SSAO inhibitory activity, RT

| Smiles Code | IC50 |
| --- | --- |
| O=c1cc(-c2nc3ccncc3n2-c2ccc(F)cc2)ccn1C1CC1 | < 50 nM |

I would be grateful if you could share the reported IC50 for `CC1(C)CN(c2ncc(-c3nc4ccncc4n3-c3ccc(F)cc3)cn2)CCO1` .
< 50 nM

Also `Clc1ccc(-n2c(-c3cnccn3)cc3ccncc32)cc1` , if possible.
< 50 nM

Also `Fc1cc(Cl)ccc1-n1c(-c2cnc(N3CCOCC3)nc2)nc2ccncc21` , if possible.
200 to 1200 nM

Also `Fc1ccc(-n2c(-c3ccc(N4CCOCC4)nc3)nc3ccncc32)c(F)c1` , if possible.
< 50 nM

====

# Tested Target: purified recombinantly expressed human SSAO (Homo sapiens, UniProt Q16853)
# Construct: made in house
# Sequence (Q16853 1-763): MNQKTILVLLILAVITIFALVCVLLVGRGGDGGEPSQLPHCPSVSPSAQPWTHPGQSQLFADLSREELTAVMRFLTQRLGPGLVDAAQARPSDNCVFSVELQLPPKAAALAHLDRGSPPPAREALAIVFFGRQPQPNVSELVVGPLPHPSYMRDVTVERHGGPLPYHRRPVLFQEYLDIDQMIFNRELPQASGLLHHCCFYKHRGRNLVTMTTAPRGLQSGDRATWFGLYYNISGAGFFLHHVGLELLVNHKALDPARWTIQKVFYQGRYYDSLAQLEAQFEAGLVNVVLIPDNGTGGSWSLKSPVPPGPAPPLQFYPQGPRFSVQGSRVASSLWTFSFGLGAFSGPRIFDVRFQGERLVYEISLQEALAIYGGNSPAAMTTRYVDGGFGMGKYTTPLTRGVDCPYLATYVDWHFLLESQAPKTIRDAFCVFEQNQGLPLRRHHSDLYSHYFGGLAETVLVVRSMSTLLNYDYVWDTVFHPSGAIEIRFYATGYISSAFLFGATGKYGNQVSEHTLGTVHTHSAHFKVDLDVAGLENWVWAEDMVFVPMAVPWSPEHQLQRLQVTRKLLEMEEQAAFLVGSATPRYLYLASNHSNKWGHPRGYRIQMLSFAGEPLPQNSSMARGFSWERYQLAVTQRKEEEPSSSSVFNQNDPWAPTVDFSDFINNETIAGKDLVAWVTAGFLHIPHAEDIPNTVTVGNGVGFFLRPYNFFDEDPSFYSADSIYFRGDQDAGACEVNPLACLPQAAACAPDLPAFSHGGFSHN
# Protocol Summary: SSAO enzyme inhibition assay (benzylamine substrate; hydrogen peroxide/HRP-coupled or 14C aldehyde detection)
# Assay type: biochemical
# Assay Context: SSAO inhibitory activity, RT
pIC50: −log10 of the molar value.
Entries and their pIC50 values follow.

Guide cases for pIC50, answers given:
| Smiles Code | pIC50 |
| --- | --- |
| Clc1ccc(-n2c(-c3cncnc3)cc3ccncc32)cc1 | > 7.30 |
| Cc1nc(C)c(-c2cc3ccncc3n2-c2ccc(Cl)cc2)[nH]1 | > 7.30 |
| Cn1cncc1-c1cc2ccncc2n1-c1ccc(Cl)cc1 | > 7.30 |
| Clc1ccc(-n2c(-c3cccnc3)nc3ccncc32)cc1 | 5.92 to 6.70 |
| Fc1ccc(-n2c(-c3ccc(N4CCOCC4)nc3)nc3ccncc32)cc1 | 5.92 to 6.70 |

I would be grateful if you could share the reported pIC50 for `c1ccc(-n2c(-c3cnc(N4CCOCC4)nc3)nc3ccncc32)cc1` .
6.70 to 7.30

Also `Clc1ccc(-n2c(-c3ccncc3Cl)cc3ccncc32)cc1` , if possible.
6.70 to 7.30

Also `Cc1ccc(-n2c(-c3cnc(NC4CCOCC4)nc3)nc3ccncc32)cc1` , if possible.
6.70 to 7.30

Also `Cc1ccc(-n2c(-c3cnc(N4CCOCC4)nc3)nc3ccncc32)nc1` , if possible.
> 7.30

Also `CS(=O)(=O)Nc1ccc(-c2nc3ccncc3n2-c2ccc(Cl)cc2)cn1` , if possible.
5.92 to 6.70

Also `Cc1ccc(-n2c(-c3cnc(N4C[C@@H](C)O[C@@H](C)C4)nc3)nc3ccncc32)nc1` , if possible.
6.70 to 7.30

Also `CCOCCNc1ncc(-c2nc3ccncc3n2-c2ccc(F)cc2)cn1` , if possible.
6.70 to 7.30

====

# Tested Target: human ether a go-go related gene (hERG) K+ channel (Homo sapiens, UniProt Q12809)
# Construct: a Chinese Hamster Lung cell line stably expressing the full length hERG channel
# Sequence (Q12809 whole entry): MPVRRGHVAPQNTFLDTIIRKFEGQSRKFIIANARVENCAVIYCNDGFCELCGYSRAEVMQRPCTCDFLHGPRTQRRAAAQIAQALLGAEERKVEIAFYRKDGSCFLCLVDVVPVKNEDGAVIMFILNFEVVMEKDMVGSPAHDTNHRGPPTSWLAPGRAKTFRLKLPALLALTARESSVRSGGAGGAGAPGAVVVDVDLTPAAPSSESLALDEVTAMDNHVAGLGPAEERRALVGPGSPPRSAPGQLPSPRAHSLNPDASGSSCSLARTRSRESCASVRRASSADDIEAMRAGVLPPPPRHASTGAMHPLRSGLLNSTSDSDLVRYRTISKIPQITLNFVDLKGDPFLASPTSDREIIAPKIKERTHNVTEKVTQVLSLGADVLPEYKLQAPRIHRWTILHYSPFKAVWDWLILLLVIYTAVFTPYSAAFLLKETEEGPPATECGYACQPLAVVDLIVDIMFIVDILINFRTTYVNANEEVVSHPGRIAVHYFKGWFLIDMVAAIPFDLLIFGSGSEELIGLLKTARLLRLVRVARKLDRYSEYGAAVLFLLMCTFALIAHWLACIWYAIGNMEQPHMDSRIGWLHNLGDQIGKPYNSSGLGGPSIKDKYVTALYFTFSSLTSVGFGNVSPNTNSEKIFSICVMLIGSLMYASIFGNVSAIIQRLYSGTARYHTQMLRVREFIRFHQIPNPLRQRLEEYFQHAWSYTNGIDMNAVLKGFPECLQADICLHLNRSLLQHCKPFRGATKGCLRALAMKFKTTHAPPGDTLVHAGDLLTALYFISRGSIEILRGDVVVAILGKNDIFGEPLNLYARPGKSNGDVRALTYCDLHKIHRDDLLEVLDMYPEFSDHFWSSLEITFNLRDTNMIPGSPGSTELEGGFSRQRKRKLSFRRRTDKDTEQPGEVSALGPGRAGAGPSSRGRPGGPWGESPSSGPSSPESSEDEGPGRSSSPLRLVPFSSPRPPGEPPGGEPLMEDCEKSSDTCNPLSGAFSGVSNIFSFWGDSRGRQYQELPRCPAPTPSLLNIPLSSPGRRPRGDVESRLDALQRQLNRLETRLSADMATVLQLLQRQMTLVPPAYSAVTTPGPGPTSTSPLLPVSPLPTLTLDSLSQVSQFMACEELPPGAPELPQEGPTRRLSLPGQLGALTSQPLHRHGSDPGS
# Protocol Summary: hERG assay, IonWorks patch clamp electrophysiology
# Assay Context: Chinese Hamster Lung cell line stably expressing hERG; max assay concentration 11 uM
Measured Parameter: IC50

| Compound | Tested Target | Data Value |
| --- | --- | --- |
| c1ccc(-n2c(-c3cnc(N4CCOCC4)nc3)cc3ccncc32)cc1 | human ether a go-go related gene (hERG) K+ channel (Homo sapiens, UniProt Q12809) | 1 to 10 µM |

Proceeding to the next compound to report its IC50.
I would be grateful if you could share the reported IC50 for `O=c1cc(-c2cc3ccncc3n2-c2ccc(Cl)cc2)cc[nH]1` .
1 to 10 µM

====

# Tested Target: human ether a go-go related gene (hERG) K+ channel (Homo sapiens, UniProt Q12809)
# Construct: a Chinese Hamster Lung cell line stably expressing the full length hERG channel
# Protocol Summary: hERG assay, IonWorks patch clamp electrophysiology
# Assay Context: Chinese Hamster Lung cell line stably expressing hERG; max assay concentration 11 uM
pIC50: −log10 of the molar value.
Entries and their pIC50 values follow.

| Molecule | Data Value |
| --- | --- |
| Clc1ccc(-n2c(-c3ccncc3Cl)cc3ccncc32)cc1 | 5.00 to 6.00 |
| Clc1ccc(-n2c(-c3ccc(CN4CCOCC4)nc3)nc3ccncc32)cc1 | < 5.00 |
| Fc1ccc(-n2c(-c3cnc(N4CCCC4)nc3)nc3ccncc32)cc1 | < 5.00 |
| NC(=O)NC1CCN(c2ccc(-c3nc4ccncc4n3-c3ccc(Cl)cc3)cn2)CC1 | < 5.00 |
| Clc1ccc(-n2c(-c3cnc(N4CCOCC4)nc3)cc3ccncc32)cc1 | 6.00 to 7.00 |
| O=C1CN(c2ncc(-c3nc4ccncc4n3-c3ccc(F)cc3)cn2)CCN1 | < 5.00 |
| CN1CCN(Cc2ccc(-c3nc4ccncc4n3-c3ccc(Cl)cc3)cc2)CC1 | < 5.00 |
| C[C@@H]1CN(c2ncc(-c3nc4ccncc4n3-c3ccc(F)cc3)cn2)C[C@H](C)O1 | < 5.00 |

I would be grateful if you could share the reported pIC50 for `Cc1ccc(-n2c(-c3cnc(N4CCOCC4)nc3)nc3ccncc32)cc1` .
< 5.00

Also `O=C1CN(c2ncc(-c3cc4ccncc4n3-c3ccc(Cl)cc3)cn2)CCN1` , if possible.
< 5.00

Also `Clc1ccc(-n2c(-c3ccc(N4CCOCC4)nc3)nc3ccncc32)cc1` , if possible.
5.00 to 6.00

Also CC1CN(c2ccc(-c3nc4ccncc4n3-c3ccc(F)cc3)cn2)CCO1 (centres unmarked) , if possible.
< 5.00

Also `Clc1ccc(-n2c(-c3cnc(NC4CCOCC4)nc3)cc3ccncc32)cc1` , if possible.
6.00 to 7.00

Also `Fc1ccc(-n2c(-c3cnc(N4CCOCC4)nc3)nc3ccncc32)c(F)c1` , if possible.
< 5.00
